target: UniProt Q08881; experiment: Inhibition of a panel of kinases, in vitro HotSpot kinase assay: ITK; format: biochemical; details: D-compounds panel data; 1 μM ATP
Sequence (Q08881 whole entry): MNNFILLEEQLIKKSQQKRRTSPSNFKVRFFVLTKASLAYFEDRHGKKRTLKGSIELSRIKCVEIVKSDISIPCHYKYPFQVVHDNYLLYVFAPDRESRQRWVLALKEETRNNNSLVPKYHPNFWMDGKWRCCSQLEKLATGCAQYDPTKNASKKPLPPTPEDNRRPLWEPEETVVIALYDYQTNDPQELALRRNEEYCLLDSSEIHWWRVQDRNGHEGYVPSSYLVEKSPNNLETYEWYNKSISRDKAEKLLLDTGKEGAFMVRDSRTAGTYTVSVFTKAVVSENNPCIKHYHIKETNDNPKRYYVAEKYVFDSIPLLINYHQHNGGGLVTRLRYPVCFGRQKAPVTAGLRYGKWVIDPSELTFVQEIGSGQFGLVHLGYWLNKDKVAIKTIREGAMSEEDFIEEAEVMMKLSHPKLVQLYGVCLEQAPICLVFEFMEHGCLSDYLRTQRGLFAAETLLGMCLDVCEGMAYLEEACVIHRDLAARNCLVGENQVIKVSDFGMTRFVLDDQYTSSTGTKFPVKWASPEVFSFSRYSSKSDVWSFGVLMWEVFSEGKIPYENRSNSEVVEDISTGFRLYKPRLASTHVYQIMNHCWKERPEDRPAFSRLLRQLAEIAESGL

>  <molecule>
C[C@@H]1[C@H](NC(=O)c2ccc(C3CC3)cc2)CCCN1c1cnc(C(N)=O)c(Nc2ccc(OC3CCN(C4CCCC4)CC3)cc2)n1

>  <IC50>
10 to 100 nM

$$$$
>  <molecule>
COCCN(C)c1ccc(C(=O)N[C@@H]2CCCN(c3cnc(C(N)=O)c(Nc4cnn(C)c4)n3)[C@@H]2C)cc1

>  <IC50>
100 to 1000 nM

$$$$
>  <molecule>
C[C@@H]1[C@H](NC(=O)c2ccc(N(C)C)cc2)CCCN1c1cnc(C(N)=O)c(Nc2ccc(N3CCN(C)CC3)cc2)n1

>  <IC50>
10 to 100 nM

$$$$
>  <molecule>
Cc1cc(Nc2nc(N3CCC[C@@H](NC(=O)c4ccc(C5CC5)cc4F)C3)cnc2C(N)=O)on1

>  <IC50>
> 10000 nM

$$$$
>  <molecule>
Cc1cc(Nc2nc(N3CCC[C@H](c4ncc(-c5ccccc5)[nH]4)C3)cnc2C(N)=O)sn1

>  <IC50>
> 10000 nM

$$$$
>  <molecule>
C[C@@H]1[C@H](NC(=O)c2ccc(C3CC3)cc2F)CCCN1c1cnc(C(N)=O)c(Nc2ccc(N3CCN(C4CCCC4)CC3)cc2)n1

>  <IC50>
100 to 1000 nM

$$$$
>  <molecule>
Cc1cc(Nc2nc(N3CCC[C@@H](n4ccc5cc(C6CC6)ccc5c4=O)C3)cnc2C(N)=O)sn1

>  <IC50>
> 10000 nM

$$$$
>  <molecule>
C[C@@H]1[C@H](NC(=O)c2ccc(C(C)(C)C)cn2)CCCN1c1cnc(C(N)=O)c(Nc2cnn(C)c2)n1

>  <IC50>
100 to 1000 nM

$$$$
>  <molecule>
C[C@@H]1[C@H](NC(=O)c2ccc(C(C)(C)C)cc2)CCCN1c1cnc(C(N)=O)c(Nc2ccc(OC3CCN(C)CC3)cc2)n1

>  <IC50>
10 to 100 nM

$$$$
>  <molecule>
C[C@@H]1[C@H](NC(=O)c2ccc(C3CC3)cc2F)CCCN1c1cnc(C(N)=O)c(Nc2ccc(N3CCOCC3)cc2)n1

>  <IC50>
100 to 1000 nM

$$$$
>  <molecule>
Cc1ccc(C(=O)N[C@@H]2CCCN(c3cnc(C(N)=O)c(Nc4cnn(C)c4)n3)[C@@H]2C)cc1

>  <IC50>
100 to 1000 nM

$$$$
>  <molecule>
C[C@@H]1[C@H](NC(=O)c2ccc(C3CC3)cc2)CCCN1c1cnc(C(N)=O)c(Nc2ccc(N3CCN(C)CC3)c(F)c2)n1

>  <IC50>
10 to 100 nM

$$$$
>  <molecule>
C[C@@H]1[C@H](NC(=O)c2ccc(C3CC3)cc2)CCCN1c1cnc(C(N)=O)c(Nc2cnn(C3CCN(C(=O)C4(C)COC4)CC3)c2)n1

>  <IC50>
10 to 100 nM

$$$$
>  <molecule>
C[C@@H]1[C@H](NC(=O)c2ccc3scnc3c2)CCCN1c1cnc(C(N)=O)c(Nc2ccc(N3CCN(C)CC3)cc2)n1

>  <IC50>
10 to 100 nM

$$$$
>  <molecule>
C[C@@H]1[C@H](NC(=O)c2ccc(C3CC3)cc2F)CCCN1c1cnc(C(N)=O)c(Nc2ccc(C3(C)CCN(C4CCCC4)CC3)cc2)n1

>  <IC50>
10 to 100 nM

$$$$
>  <molecule>
Cn1cc(Nc2nc(N3CCCC4(C3)CN(c3ccc(C5CC5)cc3)C(=O)O4)cnc2C(N)=O)cn1 (centres unmarked)

>  <IC50>
> 10000 nM

$$$$
>  <molecule>
CC(=O)NC(C)(C)c1ccc(C(=O)N[C@@H]2CCCN(c3cnc(C(N)=O)c(Nc4cnn(C)c4)n3)[C@@H]2C)cc1

>  <IC50>
100 to 1000 nM

$$$$
>  <molecule>
C[C@@H]1CC[C@H](NC(=O)c2ccc(C3CC3)cc2)CN1c1cnc(C(N)=O)c(Nc2ccc(N3CCN(C)CC3)cc2)n1

>  <IC50>
10 to 100 nM

$$$$
>  <molecule>
C[C@@H]1[C@H](NC(=O)c2ccc(C3CC3)cc2)CCCN1c1cnc(C(N)=O)c(Nc2ccc(N3CCC4(CC3)COC4)cc2)n1

>  <IC50>
100 to 1000 nM

$$$$
>  <molecule>
C[C@@H]1[C@H](NC(=O)c2ccc(C(C)(C)CO)cc2)CCCN1c1cnc(C(N)=O)c(Nc2cnn(C)c2)n1

>  <IC50>
100 to 1000 nM

$$$$
>  <molecule>
C[C@@H]1[C@H](NC(=O)c2ccc(N(C)CCO)cc2)CCCN1c1cnc(C(N)=O)c(Nc2cnn(C)c2)n1

>  <IC50>
100 to 1000 nM

$$$$
>  <molecule>
C[C@@H]1[C@H](NC(=O)c2ccc(C3CC3)cc2)CCCN1c1cnc(C(N)=O)c(Nc2cc(CN3CCCCC3)ns2)n1

>  <IC50>
10 to 100 nM

$$$$
>  <molecule>
C[C@@H]1CC[C@H](NC(=O)N(C)C)CN1c1cnc(C(N)=O)c(Nc2cnn(C)c2)n1

>  <IC50>
1000 to 10000 nM

$$$$
>  <molecule>
C[C@@H]1[C@H](NC(=O)c2ccc(C3CC3)cc2)CCCN1c1cnc(C(N)=O)c(Nc2cnn(CC3CCOCC3)c2)n1

>  <IC50>
100 to 1000 nM

$$$$
>  <molecule>
C[C@@H]1[C@H](NC(=O)c2ccc3c(cnn3C)c2)CCCN1c1cnc(C(N)=O)c(Nc2cnn(C)c2)n1

>  <IC50>
100 to 1000 nM

$$$$
>  <molecule>
C[C@@H]1[C@H](NC(=O)c2ccc(S(F)(F)(F)(F)F)cc2)CCCN1c1cnc(C(N)=O)c(Nc2cnn(C)c2)n1

>  <IC50>
1000 to 10000 nM

$$$$
